src = patent US6573282B1

Test system: formalin-induced nociception
Assay: Formalin-induced flinching (early and late/tonic phase), intrapaw injection
Assay type: in vivo, rat
Settings: late phase; intrapaw
Reported values of Formalin-Induced Flinching (Late Phase) ED50 for individual entries
The answer is to be given in μg i. paw; state only the numeric part.

In the examples that follow, each entry is paired with its recorded Formalin-Induced Flinching (Late Phase) ED50.
O=C(N1CCCCC1)C(CCN1CCC(O)(c2ccccc2)CC1)(c1ccccc1)c1ccccc1 [Compound 17C]
19
CNC(=O)C(CCN1CCC(O)(c2ccc(Cl)cc2)CC1)(c1ccccc1)c1ccccc1.Cl
3.2
CN(C)C(=O)C(CCN1CCC(O)(c2ccc(Cl)cc2)CC1)(c1ccccc1)c1ccccc1 [Ioperamide]
6
N#CC(CCN1CCC(C(=O)O)(c2ccccc2)CC1)(c1ccccc1)c1ccccc1
33
O=C(N1CCCC1)C(CCN1CCC(O)(c2ccc(Cl)cc2)CC1)(c1ccccc1)c1ccccc1 [Compound 17B]
4.9

q: Field request: Formalin-Induced Flinching (Late Phase) ED50 | item: CCN(C)C(=O)C(CCN1CCC(O)(c2ccc(Cl)cc2)CC1)(c1ccccc1)c1ccccc1 [Compound 17A]
a: 4.8

q: Similarly, CCOC(=O)C1(c2ccccc2)CCN(CCC(C#N)(c2ccccc2)c2ccccc2)CC1 [Deiphenoxylate] ?
a: 158
